So I've got a bunch of molecules here, and I need their bioavailability values.
# ASSAY NAME: Pharmacokinetics and metabolism after iv and po administration
# Type: in vivo
# ASSAY CONDITIONS: male, C57/BL6, mouse, plasma; po 50 mg/kg vs iv 5 mg/kg; read-out: F (bioavailability)

{"MOLECULE": "C[C@H]1[C@H](N2CCS(=O)(=O)CC2)O[C@@H]2O[C@@]3(C)CC[C@H]4[C@H](C)CC[C@@H]1[C@@]24OO3 [Artemisone 7, Artemisone]", "bioavailability": "4.9%"}

Q) Find the measured bioavailability of C[C@H]1[C@H](N2CC[S+]([O-])CC2)O[C@@H]2O[C@@]3(C)CC[C@H]4[C@H](C)CC[C@@H]1[C@@]24OO3 [Artemisox 6, Artemisox] and report it.
A) 16%
